Read-out: Interferon-gamma inducible Protein 10 (IP10), CXCL10 (gene 3627)
Test: BSK_KF3CT_IP10: BioMAP Diversity Plus: KF3CT Assay for Interferon-gamma inducible Protein 10 (IP10) Biomarker Activity (AID 2283068)
Settings: primary human keratinocytes with fibroblasts; actives raise or lower the signal
Description: BSK_KF3CT is a cell-based, multiplexed-readout assay that uses keratinocytes and foreskin fibroblasts, a human skin primary cell co-culture, with measurements taken at 24 hours after chemical dosing in a 96-well plate.BSK_KF3CT_IP10 is an assay component measured in the BSK_KF3CT assay. It measures IP-10 antibody related to regulation of gene expression using ELISA technology.Data from the assay component BSK_KF3CT_IP10 was analyzed into 1 assay endpoint. […]
Active and inactive are the calls of the source. How the source made its calls: active means hit-call score of the fitted dose curve at least 0.9, where 1 is the maximum; inactive means score below 0.9.
Outcomes: TRUE (active), FALSE (inactive)

- CC(=O)c1c(C)c([N+](=O)[O-])c(C(C)(C)C)c([N+](=O)[O-])c1C: FALSE
- CCCCOC(=O)CCCCCCCC(=O)OCCCC: FALSE
- C1=CC2C3C=CC(C3)C2C1 (stereo not given): FALSE
- c1ccc(CCc2ccccc2)cc1: TRUE
- Cc1cc(CCC(=O)OCCOCCOCCOC(=O)CCc2cc(C)c(O)c(C(C)(C)C)c2)cc(C(C)(C)C)c1O: FALSE
- CC(=O)Nc1ccc(C(=O)CCl)cc1: TRUE
- C[C@@H]1CCN(C(=O)[C@H](CCCN=C(N)N)NS(=O)(=O)c2cccc3c2NC[C@H](C)C3)[C@@H](C(=O)O)C1: FALSE
- C=C(C)C(=O)OCC(CC)(COC(=O)C(=C)C)COC(=O)C(=C)C: FALSE
- O=C(Nc1ccc2c(O)c(N=Nc3ccc(N=Nc4ccc(S(=O)(=O)O)cc4)cc3)c(S(=O)(=O)O)cc2c1)c1ccccc1: FALSE
- CCOC(=O)C(C#N)=C(c1ccccc1)c1ccccc1: FALSE

---

biological target: Aryl hydrocarbon receptor (Homo sapiens); test: ATG_Ahr_CIS: Attagene CIS-FACTORIAL HepG2 Assay for human Aryl Hydrocarbon Receptor (Ahr) (AID 2282930); details: HepG2 AhR cis-factorial reporter transcription; actives raise or lower the signal
Activity calls are given as the source filed them. The calls were made as follows: active = hit-call score of the fitted dose curve at least 0.9, where 1 is the maximum; inactive = score below 0.9.
Outcomes: active, inactive

- CCCCCCC(C)Nc1ccc(Nc2ccccc2)cc1 (stereo not drawn): inactive
- CCCC(=O)OC(C)(C)Cc1ccccc1: active
- COC(=O)c1cccnc1: inactive
- Oc1c(Cl)cc(Cl)c(Cl)c1Cc1c(O)c(Cl)cc(Cl)c1Cl: active
- CCOC(=O)C(C#N)=C(c1ccccc1)c1ccccc1: inactive
- CCOC(=O)C1OC1c1ccccc1 (stereo not drawn): active
- CN(C)c1ccncc1: inactive
- CCOC(=O)CC(C)O (stereo not drawn): inactive

---

experiment: BSK_BE3C_SRB: Viability Assessment in the BioMAP Diversity Plus: BE3C Assay (AID 2283028); conditions: primary human bronchial epithelial cells
Calls of active or inactive are those of the source. How the source made its calls: active means hit-call score of the fitted dose curve at least 0.9, where 1 is the maximum; inactive means score below 0.9.
Outcomes: active, inactive

* CCCCOC(=O)CCCCCCCC(=O)OCCCC | inactive
* Cc1cc(CCC(=O)OCCOCCOCCOC(=O)CCc2cc(C)c(O)c(C(C)(C)C)c2)cc(C(C)(C)C)c1O | inactive
* O=C1OC2(c3ccccc31)c1ccc(O)c(Br)c1Oc1c2ccc(O)c1Br | inactive
* CSCCC=O | inactive
* c1ccc(CCc2ccccc2)cc1 | active
* C[C@@H]1CCN(C(=O)[C@H](CCCN=C(N)N)NS(=O)(=O)c2cccc3c2NC[C@H](C)C3)[C@@H](C(=O)O)C1 | inactive
* CCCCCC(C=O)=Cc1ccccc1 | inactive

---

read-out: Matrix Metallopeptidase 1 (MMP1), MMP1 (gene 4312); test: BSK_hDFCGF_MMP1: BioMAP Diversity Plus: hDFCGF Assay for Matrix Metallopeptidase 1 (MMP1) Biomarker Activity (AID 2283064); conditions: primary human foreskin fibroblasts; actives raise or lower the signal
Calls of active or inactive are those of the source. The calls were made as follows: active = hit-call score of the fitted dose curve at least 0.9, where 1 is the maximum; inactive = score below 0.9.
Outcomes: active, inactive

• C=C(C)C(=O)OCC(CC)(COC(=O)C(=C)C)COC(=O)C(=C)C = active
• C=CC(C)(O)CCC=C(C)C (stereo not given) = inactive
• CSCCC=O = inactive
• C=C(C)C(=O)OCCOCCOCCOCCOC(=O)C(=C)C = inactive
• CCCCCC(C=O)=Cc1ccccc1 = active

---

assay: ATG_AP_2_CIS: Attagene CIS-FACTORIAL HepG2 Assay for human Activator Protein 2 (AP-2) (AID 2282932); details: HepG2 AP-2 cis-reporter, Attagene transcription factor profiling; actives raise or lower the signal
Active and inactive are the calls of the source. How the source made its calls: active means hit-call score of the fitted dose curve at least 0.9, where 1 is the maximum; inactive means score below 0.9.
Outcomes: Y (active), N (inactive)

• C=C1CC[C@H](O)C/C1=C/C=C1\CCC[C@]2(C)[C@@H]([C@H](C)/C=C/[C@H](C)C(C)C)CC[C@@H]12 = N
• CCCCC1(COC(=O)CCC(=O)O)C(=O)N(c2ccccc2)N(c2ccccc2)C1=O = N
• OC[C@H]1O[C@@H]2O[C@H]3[C@H](O)[C@@H](O)[C@@H](O[C@H]4[C@H](O)[C@@H](O)[C@@H](O[C@H]5[C@H](O)[C@@H](O)[C@@H](O[C@H]6[C@H](O)[C@@H](O)[C@@H](O[C@H]7[C@H](O)[C@@H](O)[C@@H](O[C@H]8[C@H](O)[C@@H](O)[C@@H](O[C@H]9[C@H](O)[C@@H](O)[C@@H](O[C@H]1[C@H](O)[C@H]2O)O[C@@H]9CO)O[C@@H]8CO)O[C@@H]7CO)O[C@@H]6CO)O[C@@H]5CO)O[C@@H]4CO)O[C@@H]3CO = N
• O=C(CS)OCCOC(=O)CS = Y

---

assay: ATG_XTT_Cytotoxicity: Cytotoxicity Assessment in the Attagene TRANS-FACTORIAL HepG2 Assay (AID 2283584)
Records with an inconclusive call do not appear. The source made the active and inactive calls. The calls were made as follows: active = hit-call score of the fitted dose curve at least 0.9, where 1 is the maximum; inconclusive = response in the unintended direction; inactive = score below 0.9.
Outcomes: class 1 = active, class 0 = inactive

- CCCCCCCCCCCCCC(=O)OCC(O)CO (stereo not given): class 0
- CCCC[O][Al]([O]CCCC)[O]CCCC: class 0
- CC1(C)O[C@@H]2C[C@H]3[C@@H]4CCC5=CC(=O)C=C[C@]5(C)[C@@]4(F)[C@@H](O)C[C@]3(C)[C@]2(C(=O)CO)O1: class 0
- OCC(O)c1ccccc1 (stereo not given): class 0
- [Cl][Au]([Cl])[Cl]: class 0
- CCCCC1CCC(O)CC1 (stereo not given): class 0
- C=C(C#N)C(=O)OCC: class 0
- CCc1ccc(O)c(OC)c1: class 0
- Cc1cccc(Nc2ccccc2)c1: class 0
- C1CCOC1: class 0
- COC(=O)C=C(C)CCC=C(C)C: class 0
- C=C(C)[C@@H]1CC=C(C)C(=O)C1: class 0
- COc1cc([C@@H]2c3cc4c(cc3[C@@H](O[C@@H]3O[C@@H]5CO[C@@H](C)O[C@H]5[C@H](O)[C@H]3O)[C@H]3COC(=O)[C@H]23)OCO4)cc(OC)c1O: class 0
- COc1ccc(N=Nc2cc(C)c(N=Nc3ccc(S(=O)(=O)O)cc3)cc2OC)cc1: class 0
- COc1ccc(OC)c(N=Nc2c(O)ccc3ccccc23)c1: class 0
- CC(CN=Cc1ccccc1O)N=Cc1ccccc1O (stereo not given): class 0
- CCOC(=O)CC(C)O (stereo not given): class 0
- C=Cc1ccc(C(C)(C)C)cc1: class 0
- C=C(CC(=O)O)C(=O)O: class 0
- O=C1CCCC=CCCCCCCCCCC1: class 0
- COc1cccc(OC)c1O: class 0
- CC(C)Nc1nc(N)nc(Cl)n1: class 0
- C/C=C(\C)C(=O)OCCc1ccccc1: class 0
- CCc1cc(Cc2cc(CC)cc(C(C)(C)C)c2O)c(O)c(C(C)(C)C)c1: class 0
- CCOC(=O)CN: class 0
- CC(C)(C)c1ccc(C(=O)O)cc1: class 0
- OCC#CCO: class 0
- COCCOC(=O)c1ccccc1C(=O)OCCOC: class 0
- CC(C)CC(C)CC(O)CC(C)C (stereo not given): class 0
- C=C[Si]1(C)O[Si](C)(C=C)O[Si](C)(C=C)O[Si](C)(C=C)O1 (stereo not given): class 0
- COS(=O)(=O)O: class 0
- CN(C)C(=O)Nc1ccc(Oc2ccc(Cl)cc2)cc1: class 0
- C=CC(=C)CCCC(C)(C)OC(C)=O: class 0
- CCC1(c2ccccc2)C(=O)NCNC1=O: class 0
- CCCCCCCCC=CCCCCCCCC1=NCCN1CCO: class 1
- OCCOCCN1CCN(C2=Nc3ccccc3Sc3ccccc32)CC1: class 0
- CCCCCCCCCCCCCCN(CCO)CCO: class 1
- N#Cc1cscn1: class 0
- CCCC(=O)C(CC)Sc1ccoc1C (stereo not given): class 0
- O=C(O)COCC(=O)O: class 0
- Cc1c(Cl)cccc1[N+](=O)[O-]: class 0
- Cc1ncc[nH]1: class 0
- CCCCCC(=O)CC: class 0
- COC(=O)c1ccc([N+](=O)[O-])cc1: class 0
- ClC(c1ccccc1)(c1ccccc1)c1ccccc1: class 0
- CCCCCCC(C)(C)S: class 0
- C=CC(C)C#N (stereo not given): class 0
- [O-]n1ccccc1=S.[O-]n1ccccc1=S.[Zn+2]: class 1
- COc1ccc(COC(C)=O)cc1: class 0
- CCOc1ccc(NC(=O)CC(C)O)cc1 (stereo not given): class 0
